testedTarget: UniProt Q2M2I8
protocolSummary: HEK281 Cell-Based Assay (phospho-mu2 Western blot in HEK293F cells transfected with AAK1 and AP2M1)
appliedConditions: IC50 (nM), functional potency; inhibition of mu2 phosphorylation in HEK293F cells, 3 hours incubation, 5 concentrations
measuredMetric: IC50 (nM)

Please review the following examples before continuing.
CC(C)CC(N)c1ncc2cc(-c3cnco3)ccc2n1 (stereo not shown) [Example 1]	420
CC(C)CCc1nc(C(=O)N(C)C)c2cc(-c3ccncc3)ccc2n1 [Example 59]	2670
CCc1nc(CCC2CCCC2)nc2ccc(-c3ccncc3)cc12 [Example 10]	4800

I: CCOc1nc(C(N)CC(C)C)nc2ccc(-c3cnco3)cc12 (stereo not shown) [Example 15]
II: CC(C)CCc1nc2ccc(-c3cn[nH]c3)cc2c(=O)[nH]1 [Example 51]
For the two items I and II , which reports the higher IC50 value? Refer to your chosen entry by its label in the reply.
I
(I: 410 nM, II: 22 nM)

I: CC(C)CCc1nc(N2CCC2)c2cc(-c3cnco3)ccc2n1 [Example 83]
II: CCc1nc(C(CN)CC(C)C)nc2ccc(-c3ccncc3)cc12 (stereo not shown) [Example 68]
III: CCc1nc(CCC(C)C)nc2ccc(-c3cnco3)cc12 [Example 57]
IV: COc1nc(C(N)CC(C)C)nc2ccc(-c3cnco3)cc12 (stereo not shown) [Example 14]
V: CC(C)CCc1nc(C(N)=O)c2cc(-c3ccncc3)ccc2n1 [Example 53]
Returns the items ordered by IC50, from maximum to minimum. Arrange the labels as the request states and list them.
III, I, V, IV, II

P: Cc1nc(C(N)CC(C)C)nc2ccc(-c3cnco3)cc12 (stereo not shown) [Example 2]
Q: COc1cnccc1-c1ccc2nc(C(N)CC(C)C)nc(N(C)C)c2c1 (stereo not shown) [Example 26]
Lowest IC50? choose P or Q Refer to your chosen entry by its label in the reply.
Q

* * *

testedTarget: AAK1 (full length human) (Homo sapiens, UniProt Q2M2I8)
Sequence (Q2M2I8 1-863 isoform Q2M2I8-2): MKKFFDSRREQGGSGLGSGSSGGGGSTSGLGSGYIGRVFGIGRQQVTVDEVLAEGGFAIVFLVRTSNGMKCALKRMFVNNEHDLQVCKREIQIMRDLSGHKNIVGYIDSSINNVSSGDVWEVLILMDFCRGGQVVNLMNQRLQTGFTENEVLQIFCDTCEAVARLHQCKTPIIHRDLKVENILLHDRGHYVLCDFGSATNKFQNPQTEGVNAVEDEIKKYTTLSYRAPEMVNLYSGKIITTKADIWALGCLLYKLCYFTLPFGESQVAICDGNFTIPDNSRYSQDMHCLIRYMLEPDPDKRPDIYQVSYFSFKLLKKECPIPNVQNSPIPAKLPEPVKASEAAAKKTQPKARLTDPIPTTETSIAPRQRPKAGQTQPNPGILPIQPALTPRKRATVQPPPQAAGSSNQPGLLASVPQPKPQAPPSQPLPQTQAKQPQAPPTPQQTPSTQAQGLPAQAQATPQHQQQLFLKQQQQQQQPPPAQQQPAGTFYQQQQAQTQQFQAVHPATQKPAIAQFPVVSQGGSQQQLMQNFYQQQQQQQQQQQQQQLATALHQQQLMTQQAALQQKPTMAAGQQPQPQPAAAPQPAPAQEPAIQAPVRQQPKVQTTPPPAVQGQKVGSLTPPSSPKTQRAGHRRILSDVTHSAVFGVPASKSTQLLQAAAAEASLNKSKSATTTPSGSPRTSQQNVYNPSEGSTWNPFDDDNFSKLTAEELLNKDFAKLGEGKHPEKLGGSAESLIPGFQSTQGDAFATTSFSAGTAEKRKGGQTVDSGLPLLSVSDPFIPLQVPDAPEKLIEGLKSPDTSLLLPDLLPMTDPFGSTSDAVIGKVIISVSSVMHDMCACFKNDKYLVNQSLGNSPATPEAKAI
protocolSummary: HEK281 Cell-Based Assay (phospho-mu2 Western blot in HEK293F cells transfected with AAK1 and AP2M1)
appliedConditions: IC50 (nM), functional potency; inhibition of mu2 phosphorylation in HEK293F cells, 3 hours incubation, 5 concentrations
measuredMetric: IC50 (nM)

CC(C)CCc1nc(NCCN2CCCC2)c2cc(-c3cnco3)ccc2n1	1090

a: COCCNc1nc(CCC(C)C)nc2ccc(-c3cnco3)cc12
b: COc1cc2nc(C(N)CC(C)C)nc(C#N)c2cc1-c1cnco1 (stereo not drawn)
Lowest IC50? choose a or b Refer to your chosen entry by its label in the reply.
b
(b: 6 nM, a: 3460 nM)

* * *

testedTarget: AAK1 (full length human) (Homo sapiens, UniProt Q2M2I8)
protocolSummary: HEK281 Cell-Based Assay (phospho-mu2 Western blot in HEK293F cells transfected with AAK1 and AP2M1)
appliedConditions: IC50 (nM), functional potency; inhibition of mu2 phosphorylation in HEK293F cells, 3 hours incubation, 5 concentrations
measuredMetric: IC50 (nM)

P: CC(C)CC(N)c1nc2ccc(-c3cnco3)cc2c(=O)[nH]1 (stereo not shown)
Q: CCc1nc(C(N)C2CCCCC2)nc2ccc(-c3ccncc3)cc12 (single isomer, unassigned; (-)) [Example 7]
R: CCc1nc(C(N)CC2CCCCC2)nc2ccc(-c3ccncc3)cc12 (stereo not shown)
S: Cc1cnc(CNc2nc(CCC(C)C)nc3ccc(-c4cnco4)cc23)cn1
Which order do these items take when sorted by rising IC50? List them. Arrange the labels as the request states and list them.
Q, P, R, S

* * *

testedTarget: AAK1 (full length human) (Homo sapiens, UniProt Q2M2I8)
protocolSummary: HEK281 Cell-Based Assay (phospho-mu2 Western blot in HEK293F cells transfected with AAK1 and AP2M1)
appliedConditions: IC50 (nM), functional potency; inhibition of mu2 phosphorylation in HEK293F cells, 3 hours incubation, 5 concentrations
measuredMetric: IC50 (nM)

P: CCc1nc(C(C)CC(C)C)nc2ccc(-c3ccnc(NC)c3)cc12 (centres unmarked) [Example 67]
Q: CCc1nc([C@H](N)C2CCCCC2)nc2ccc(-c3ccncc3)cc12 [Example 72]
R: COc1cnccc1-c1ccc2nc(CCC(C)C)nc(N(C)C)c2c1 [Example 29]
S: CCCc1nc(C(N)CC(C)C)nc2ccc(-c3cnco3)cc12 (centres unmarked) [Example 4]
T: CCN(CC)c1nc(C(N)CC(C)C)nc2ccc(-c3ccncc3)cc12 (centres unmarked) [Example 25]
Which order do these items take when sorted by rising IC50? List them. Arrange the labels as the request states and list them.
Q, T, R, P, S
(Q: 13 nM, T: 22 nM, R: 54 nM, P: 1500 nM, S: 5300 nM)

* * *

testedTarget: AAK1 (full length human) (Homo sapiens, UniProt Q2M2I8)
protocolSummary: HEK281 Cell-Based Assay (phospho-mu2 Western blot in HEK293F cells transfected with AAK1 and AP2M1)
appliedConditions: IC50 (nM), functional potency; inhibition of mu2 phosphorylation in HEK293F cells, 3 hours incubation, 5 concentrations
measuredMetric: IC50 (nM)

a: CCc1nc(C(N)CC(C)C)nc2ccc(-c3cnco3)cc12 (stereo not drawn) [Example 3]
b: CC(C)CCc1nc(NCCCN(C)C)c2cc(-c3cnco3)ccc2n1 [Example 80]
Lowest IC50? choose a or b Refer to your chosen entry by its label in the reply.
a
(a: 77 nM, b: 3320 nM)

P: CCc1nc(C(N)CC(C)C)nc2cc(OC)c(-c3cnco3)cc12 (single isomer, unassigned; enantiomer 1) [Example 86]
Q: CCc1nc(C(N)CC(C)C)nc2cc(OC)c(-c3cnco3)cc12 (single isomer, unassigned; enantiomer 2) [Example 87]
R: CC(C)CCc1nc(C#N)c2cc(-c3ccncc3)ccc2n1 [Example 60]
Returns the items ordered by IC50, from maximum to minimum. Arrange the labels as the request states and list them.
R, P, Q

A: CCc1nc([C@H](N)C2CCCC2)nc2ccc(-c3ccncc3)cc12 [Example 71]
B: CC(C)CCc1nc2ccc(-c3ccncc3)cc2c(=O)[nH]1 [Example 49]
Lowest IC50? choose A or B Refer to your chosen entry by its label in the reply.
A

1: CCc1nc(C(N)CCC(F)(F)F)nc2ccc(-c3ccncc3)cc12 (stereo not drawn) [Example 69]
2: CC(C)CC(N)c1nc(C#N)c2cc(-c3cnco3)ccc2n1 (stereo not drawn) [Example 30]
For the two items 1 and 2 , which reports the higher IC50 value? Refer to your chosen entry by its label in the reply.
1
(1: 32 nM, 2: 17 nM)

a: CCc1nc(C(N)CC(C)C)nc2ccc(-c3cn[nH]c3)cc12 (stereo not drawn) [Example 63]
b: COC(=O)CCNc1nc(CCC(C)C)nc2ccc(-c3cnco3)cc12 [Example 82]
For the two items a and b , which reports the higher IC50 value? Refer to your chosen entry by its label in the reply.
b
(b: 4620 nM, a: 28 nM)

I: COc1nc(CCC(C)C)nc2ccc(-c3cnco3)cc12 [Example 41]
II: CC(C)CC(N)c1nc2ccc(-c3ccncc3)cc2c(=O)[nH]1 (stereo not drawn) [Example 13]
III: CC(C)CC(N)c1nc(C#N)c2cc(-c3ccncc3)ccc2n1 (stereo not drawn) [Example 33]
IV: CCc1nc(CCC(C)C)nc2cc(OC)c(-c3cnco3)cc12 [Example 52]
V: CC(C)CC(N)c1nc(N2CCC2)c2cc(-c3ccncc3)ccc2n1 (stereo not drawn) [Example 73]
Returns the items ordered by IC50, from maximum to minimum. Arrange the labels as the request states and list them.
I, IV, II, V, III
(I: 3150 nM, IV: 1270 nM, II: 93 nM, V: 44 nM, III: 14 nM)

* * *

testedTarget: AAK1 (full length human) (Homo sapiens)
protocolSummary: HEK281 Cell-Based Assay (phospho-mu2 Western blot in HEK293F cells transfected with AAK1 and AP2M1)
appliedConditions: IC50 (nM), functional potency; inhibition of mu2 phosphorylation in HEK293F cells, 3 hours incubation, 5 concentrations
measuredMetric: IC50 (nM)

a: CCc1nc(C(N)CC(C)C)nc2ccc(-c3ccncn3)cc12 (centres unmarked)
b: CCc1nc(C(N)CC(C)C)nc2cc(OC)c(-c3ccncc3)cc12 (centres unmarked)
Lowest IC50? choose a or b Refer to your chosen entry by its label in the reply.
a
(a: 83 nM, b: 932 nM)

a: CNc1nc(C(N)CC(C)C)nc2ccc(-c3cnco3)cc12 (centres unmarked)
b: COc1nc(C(N)CC(C)C)nc2ccc(-c3ccncc3)cc12 (centres unmarked)
c: CC(C)CCc1nc(C#N)c2cc(-c3cnco3)ccc2n1
d: CCOc1cc2nc(CCC(C)C)nc(CC)c2cc1-c1cnco1
Order the records, beginning with the lowest IC50 and ending with the highest. Arrange the labels as the request states and list them.
b, a, c, d

A: CCc1nc(C(C)CC(C)C)nc2ccc(-c3ccnc(NC(C)=O)c3)cc12 (centres unmarked)
B: CC(C)CC(N)c1nc(N2CCCC2)c2cc(-c3cnco3)ccc2n1 (centres unmarked)
For the two items A and B , which reports the higher IC50 value? Refer to your chosen entry by its label in the reply.
B
(B: 760 nM, A: 258 nM)

1: COc1cc2nc(C(N)CC(C)C)nc(C#N)c2cc1-c1ccncc1 (centres unmarked)
2: CC(C)CCc1nc(N(C)C)c2cc(-c3cnco3)ccc2n1
For the two items 1 and 2 , which reports the higher IC50 value? Refer to your chosen entry by its label in the reply.
2
